Attribution: paper PMC7870626

system: LUHMES cells; assay: NeuriTox test: neurite area and viability, 24 h; type: cell-based, human; settings: Homo sapiens; NeuriTox test, neurite outgrowth impairment, LUHMES 24 h; read-out: EC25 KE4 (AO) Neurite toxicity (converted)
outcome measure: EC25 (µM)
Answers are plain numbers, in µM.

Here's what some known entries look like.
compound	result
Cc1nc(C(F)(F)F)c(C(=O)Nc2c(Br)cc(OC(F)(F)F)cc2Br)s1 [Thifluzamide]	20
COc1cc2c(cc1OC)[C@@H]1C(=O)c3ccc4c(c3O[C@@H]1CO2)C=CC(C)(C)O4 [Deguelin]	3.98
Cc1nn(C)c(Oc2ccccc2)c1C=NOCc1ccc(C(=O)OC(C)(C)C)cc1 [Fenpyroximate]	15.8

Would you mind listing EC25 for each of the following compounds?
1. Cc1ccc(-c2c(Cl)nc(C#N)n2S(=O)(=O)N(C)C)cc1 [Cyazofamid]
2. CC1=C(C(=O)Nc2ccccc2)SCCO1 [Carboxin]
3. CCOCCc1ccc(OCCN=c2[nH]cnc(CC)c2Cl)c(C)c1C [Pyrimidifen]

1: 50.1; 2: 79.4; 3: 15.8

For every item below, please supply its EC25.
1. COC(=O)N(OC)c1ccccc1COc1ccn(-c2ccc(Cl)cc2)n1 [Pyraclostrobin]
2. CCc1nn(C)c(C(=O)NCc2ccc(C(C)(C)C)cc2)c1Cl [Tebufenpyrad]
3. CCCCCC[C@H]1C(=O)O[C@H](C)[C@H](NC(=O)c2cccc(NC=O)c2O)C(=O)O[C@@H](C)[C@@H]1OC(=O)CC(C)C [Antimycin A]

[25.1, 20, 15.8]
